assayed-system: pooled human IgG (human IgG1,2,3 and 4)
We begin with a simple list: items and their reported Enzyme Activity Endpoint Assay: IgG.
reported-metric: Enzyme Activity Endpoint Assay: IgG (ng/µL)

{"columns": ["protein", "endpoint-unit", "measured-number"],
 "data": [
  ["PRT-84 (protein) MANQEIRYSEETPYTVTSVWTKGVTPPTQFIQGEDVFHAPYKANQGWYDITKTFNGKDNLLCGAATAGNMLHWWFDQNKEYIEAYLKKHPEKQKIMFGDQELLDVRKVINTKDSQTDSKLFNYFKDKAFPNLSARRLGVMPDLVLDMFINGYYLNVGKTQTTDVNRTYQEKDKRGGIFDAVFTRGDQSKLLTSRHDFKEKSLKEISDLIKKELTEGKALGLSHTYANVRINHVINLWGADFDSEGNLKAIYVTDSDSDASIGMKKYFVGVNSSGKVAISAKEIEEDNIGAQVLGLFTLSSGQDIWNQTN", "ng/µL", 27],
  ["PRT-172 (protein) MANQEIRYSEVTPYHVTSVWTKGVKPPTDFIKGEDVFHAPYKAHQGWYDITKTFNGKDDLLCGAATAGNMLHWWFDQNKDQIKRYLEEHPEKQKINFNGEQMFDVKEAIDTKNSQLDSKLFEYFKEKAFPYLSTKHLGVFPDHVIDMFINGYRLSLTNHGPTPVKEGSKDPRGGIFDAVFTRGDQSKLLTSRHDFKEKNLKEISDLIKKELTEGKALGLSHTYANVRINHVINLWGADFDSNGNLKAIYVTDSDSNASIGMKKYFVGVNSAGKVAISAKEIKEDNIGAQVLGLFTLSTGQDSWNQTN", "ng/µL", 0]
]}
